Entry source: PubChem BioAssay AID1996

For each record, write down the corresponding solubility kinetic.
# RUN_PARAMETERS: buffer; pH 7.4; 200.0 µM
Please reply with the bare figure in µg/mL and do not write the unit itself.

Fill in: solubility kinetic of `Cc1ccc(C(=O)N2CCCc3ccccc32)c(F)c1F` is ___
17.2

Requested field: solubility kinetic. Item: `Cc1nc(SCCOc2ccccc2F)[nH]c(=O)c1Cc1ccccc1`
0.6

Find the recorded solubility kinetic belonging to Cc1ccc(Nc2nc(C)c3c(n2)CC(C)CC3=O)c(C)c1 (centres undefined) and report it.
1.7

What value of solubility kinetic has been recorded for this entry: Cc1ccc(C2=NOC3(CC(=O)N(c4ccc(C)cc4)C3=O)C2)cc1 (centres undefined)
12.6

Entry `Nc1cccc(-c2cn3cccnc3n2)c1` : reported solubility kinetic = ?
25.9

Given the compound `Cc1c(C(=O)N2CCc3ccccc3C2)oc2ccccc12` , what is its reported solubility kinetic?
7.5

Entry under review: `Cc1noc(/C=C/c2cccnc2)c1[N+](=O)[O-]` . Reported solubility kinetic?
33.7

Fill in the blank: the reported solubility kinetic of O=C(COC(=O)C1CC(=O)N(Cc2ccco2)C1)Nc1nc(-c2ccc(F)cc2)cs1 (centres undefined) is ____.
16.9

Request the reported solubility kinetic associated with `CN(Cc1cccc(Cl)c1Cl)C(=O)c1cc(S(=O)(=O)N2CCOCC2)ccc1F`
5.2

Would you mind telling me what solubility kinetic value was observed for `ClCc1cc2ccccc2nc1Cl` ?
6.5

# input compound: Cc1cc(C)c2c(CN3CC(C)OC(C)C3)cc(=O)oc2c1C (centres undefined) ; wanted: its solubility kinetic
13.6

Which value of solubility kinetic has been reported for `COc1ccc(CN(C)C(=O)Cc2ccsc2)c(OC)c1OC` in the records?
35.2

---

Assign solubility kinetic to each entry below.
# RUN_PARAMETERS: buffer; pH 7.4; 200.0 µM

Can you look up the measured solubility kinetic of `CCCS(=O)(=O)Nc1ccc(-c2cn3c(n2)SCC3)cc1` for me?
44.5 µg/mL

Which solubility kinetic value belongs to `Cc1ccc(OCc2csc(N)n2)cc1` ?
> 33 µg/mL

// query solubility kinetic value for entry `CN(c1ccc(OCC(=O)Nc2cc(Cl)ccc2C(=O)O)cc1)S(=O)(=O)c1ccc(F)cc1`
> 73.9 µg/mL

Reported solubility kinetic for `O=[N+]([O-])c1cccc(-c2nc3ccc([N+](=O)[O-])cc3[nH]2)c1` : what is it?
1.2 µg/mL

// returns reported solubility kinetic for input `O=C(COC(=O)c1cnccn1)Nc1cc(S(=O)(=O)N2CCOCC2)ccc1Cl`
> 66.1 µg/mL

Any idea what solubility kinetic was measured for `C=CCn1c(O)c(N=O)c2ccccc21` ?
> 30.3 µg/mL

---

# RUN_PARAMETERS: buffer; pH 7.4; 200.0 µM
MEASURE: solubility kinetic (µg/mL)
Give a bare numeral; the unit µg/mL is implied.

Looking for the measured solubility kinetic of `COc1ccc(NC(=O)CNC(=O)c2cccs2)cc1Cl` , can you help?
2.7

Recorded solubility kinetic for `CS(=O)(=O)c1ccc(-c2csc(-c3cccnc3)n2)cc1` , please?
5.6

# lookup: solubility kinetic of `Cc1ccc(CCNC(=O)CSCc2ccc(F)cc2)cc1`
13.5

I am curious: what solubility kinetic value has been reported for `CCc1cc2cc(C)cc(C)c2[nH]c1=S` ?
3.9
